Numbers sourced from PubChem BioAssay AID1159580.

test.details: chemical genetic growth profiling, strain panel (AID 1159580);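 also: tested at 20 µM; growth read once vehicle control cultures reached saturation at 30 °C; 1 = growth at the plate median or of vehicle wells; lower values mean less growth of the strain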
assay.setup: S. cerevisiae deletion strains, growth OD, locus YDL005C, strain med2, active compounds read low
Among all 5,500 compounds or so, about 2,000 (36%) were called active. Not shown: some 18% with an inconclusive outcome. The list shows a part of the results.
assay.endpoint: normalized growth
One number for each entry.

As a guide, the following entries are already answered.
compound	normalized growth
CC1CCc2cc(F)cc3c(=O)c(C(=O)O)cn1c23 (stereo not drawn)	0.995
C[C@H]1COc2c(N3CCN(C)CC3)c(F)cc3c(=O)c(C(=O)O)cn1c23	1.04
CC[C@]1(O)CC2CN(CCc3c([nH]c4ccccc34)[C@@](C(=O)OC)(c3cc4c(cc3OC)N(C)[C@H]3[C@@](O)(C(=O)OC)[C@H](OC(C)=O)[C@]5(CC)C=CCN6CC[C@]43[C@@H]65)C2)C1 (stereo partly drawn)	0.972
CN(C)CCN(Cc1cccs1)c1ccccn1	1.01
COc1ccc(-c2coc3cc(O)ccc3c2=O)cc1	0.982

Below is a list of compounds. For each, state its recorded normalized growth.
1. c1ccc2c(c1)sc1ccccc12
2. CC[C@@]1(O)C[C@H](O[C@H]2C[C@H](N(C)C)[C@H](O)[C@H](C)O2)c2c(cc3c(c2O)C(=O)c2c(O)ccc(O)c2C3=O)[C@H]1C(=O)OC
3. Cc1ccc(C(=O)Nc2ccc(S(=O)(=O)O)c3cc(S(=O)(=O)O)cc(S(=O)(=O)O)c23)cc1NC(=O)c1cccc(NC(=O)Nc2cccc(C(=O)Nc3cc(C(=O)Nc4ccc(S(=O)(=O)O)c5cc(S(=O)(=O)O)cc(S(=O)(=O)O)c45)ccc3C)c2)c1
4. COc1cc([C@@H]2c3cc4c(cc3[C@@H](O)C3COC(=O)C32)OCO4)cc(OC)c1O (stereo partly drawn)
5. O=C(/C=C/c1ccc(O)c(O)c1)OC(Cc1ccc(O)c(O)c1)C(=O)O (stereo not drawn)

Reply:
0.906
1.03
1.02
0.979
1.01

Below is a list of compounds. For each, state its recorded normalized growth.
1. COc1cc2nc(N(C)CCCNC(=O)C3CCCO3)nc(N)c2cc1OC (stereo not drawn)
2. O=C(/C=C/c1ccc(O)c(O)c1)OCCc1ccccc1

Reply:
1: 1; 2: 0.964

Below is a list of compounds. For each, state its recorded normalized growth.
1. Cc1ccc(S(=O)(=O)NC(=O)NN2CCCCCC2)cc1
2. CC(=O)Oc1cc(OC(C)=O)c2c(c1)O[C@H](c1ccc(OC(C)=O)c(OC(C)=O)c1)[C@@H](OC(C)=O)C2
3. Nc1ncn[nH]1
4. COC(=O)[C@@H]1OC(=O)C2OC23[C@@]1(C)CCC1[C@]2(C)C(C[C@H](O)[C@]13C)C(C)(C)[C@H](OC(C)=O)C[C@@H]2OC(C)=O (stereo partly drawn)
5. COc1c(N2CCNC(C)C2)c(F)cc2c(=O)c(C(=O)O)cn(C3CC3)c12 (stereo not drawn)

Reply:
[0.989, 1, 1.02, 1.02, 0.998]

Below is a list of compounds. For each, state its recorded normalized growth.
1. C/C=C(\C)C(=O)O[C@H]1C[C@@H](OC(C)=O)[C@@]2(C(=O)OC)CO[C@@H]3C2[C@]12CO[C@](O)(C(=O)OC)[C@H]2[C@](C)(C12O[C@@]1(C)[C@H]1C[C@@H]2OC2OC=C[C@@]21O)[C@@H]3O (stereo partly drawn)
2. COc1ccc(-c2coc3cc(O)ccc3c2=O)c(OC)c1
3. O=C(Oc1cc(OC(=O)c2ccccc2)c2c(c1)O[C@H](c1ccc(OC(=O)c3ccccc3)c(OC(=O)c3ccccc3)c1)[C@@H](OC(=O)c1ccccc1)C2)c1ccccc1

Reply:
1: 0.963; 2: 1; 3: 0.991
